# Lookup of reported shrunken log2 fold change keyed by entry
System: Escherichia coli TOP10;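 also: peptides expressed intracellularly from a pBAD plasmid library in pooled LB shake-flask culture, induced with 0.3% L-arabinose, DNA abundance read by NGS, three biological replicates, DESeq2 with apeglm shrinkage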
Test: shrunken log2 fold change of peptide-encoding DNA abundance (4.5 h post-induction vs induction); higher = less antimicrobial activity (less host growth inhibition)
Settings: time post-induction: 4.5 h; library: site-saturation at positions 5, 18, 19, 20
Reply: number alone, nothing else.

Consider the reported shrunken log2 fold change for these sequences:
* RRIRWRPPRLPRPRPRPGVHPRP | 0.135
* RRIRARPPRLPRPRPRPQLFPRP | 0.18
* RRIRCRPPRLPRPRPRPFFFPRP | 0.101
* RRIRHRPPRLPRPRPRPIPCPRP | -0.0558
* RRIRKRPPRLPRPRPRPYENPRP | -0.517
* RRIRYRPPRLPRPRPRPWMHPRP | -0.519
* RRIRSRPPRLPRPRPRPAVIPRP | -0.593
* RRIRQRPPRLPRPRPRPRRPPRP | 0.472
* RRIRTRPPRLPRPRPRPAGGPRP | 0.304
* RRIRDRPPRLPRPRPRPYVWPRP | -0.579

Data request: Return reported shrunken log2 fold change; argument: RRIRRRPPRLPRPRPRPPHAPRP
Data returned: 1.52

Data request: Field request: shrunken log2 fold change | item: RRIRWRPPRLPRPRPRPDHMPRP
Data returned: -0.128

Data request: Need shrunken log2 fold change, item RRIRYRPPRLPRPRPRPCSLPRP
Data returned: 0.0201

Data request: What does the data say about its shrunken log2 fold change? Entry: RRIRYRPPRLPRPRPRPWNKPRP
Data returned: -0.00965
